property: logP
Number only, please.

Known results for compounds:
compound	logP
CC(C)Cc1ccc(CC(=O)O)cc1	3.35
CC(CN1CCCCC1)C(=O)c1ccccc1 (stereo not drawn)	3.51
Nc1c(Cl)c(Cl)cc(Cl)c1Cl	4.1
Cc1cccc2nc3n(c(=O)c12)CCC3	1.59
CC(N)C(=O)O (stereo not drawn)	-2.85
CC(C)COC(=O)N(C)C	2
C=C1C(=O)OC2C1C(O)CC(C)C1CCC(=O)C12C (stereo not drawn)	0.23

**Q:** Please give the documented logP of CC(=O)Nc1nc(=O)cc(-c2ccc([N+](=O)[O-])o2)s1
**A:** 1.01
